Origin of measurements: patent US20250195521A1

- measurement-target: KRAS G12V (Homo sapiens (Human), UniProt P01116+P62937, G12V)
- Sequence (P01116 other isoform, or with tags, fused parts or gaps G12V, one chain of several): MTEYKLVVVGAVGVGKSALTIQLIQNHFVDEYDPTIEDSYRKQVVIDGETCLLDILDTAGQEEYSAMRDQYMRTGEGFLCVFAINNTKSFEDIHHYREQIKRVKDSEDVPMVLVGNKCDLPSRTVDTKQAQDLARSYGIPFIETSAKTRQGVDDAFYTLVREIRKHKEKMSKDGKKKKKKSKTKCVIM
- assay-procedure: Ras-Raf disruption/FRET/MOA assay (BRAF RBD, Cyclophilin A)
- Format: biochemical
- test-parameters: read-out: KRAS G12V FRET IC50
Consider the following molecules and their measured IC50 readings.

# annotated cases, reported IC50 shown
CCn1c(-c2cccnc2[C@H](C)OC)c2c3cc(ccc31)-c1cc(O)cc(c1)C[C@H](NC(=O)[C@H](C(C)C)N(C)C(=O)[C@H]1CNC[C@@H]1C)C(=O)N1CCC[C@H](N1)C(=O)OCC(C)(C)C2 = 0.1 to 1 µM
CCn1c(-c2cccnc2[C@H](C)OC)c2c3cc(ccc31)-c1csc(n1)C[C@H](NC(=O)[C@H](C(C)C)N(C)S(=O)(=O)N1CC(OC)C1)C(=O)N1CCC[C@H](N1)C(=O)OCC(C)(C)C2 = 0.1 to 1 µM
CCn1c(-c2cccnc2[C@H](C)OC)c2c3cc(ccc31)-c1cc(O)cc(c1)C[C@H](NC(=O)[C@H](C(C)C)N(C)C(=O)[C@H]1CCN(C(=O)CCc3ccccc3)C1)C(=O)N1CCC[C@H](N1)C(=O)OCC(C)(C)C2 = 0.01 to 0.1 µM
CCn1c(-c2cccnc2[C@H](C)OC)c2c3cc(ccc31)-c1csc(n1)C[C@H](NC(=O)[C@H](C(C)C)N(C)C(=O)N1CC[C@@]13CCCN(C)C3)C(=O)N1CCC[C@H](N1)C(=O)OCC(C)(C)C2 = 1 to 10 µM
CCn1c(-c2cccnc2[C@H](C)OC)c2c3cc(ccc31)-c1cc(O)cc(c1)C[C@H](NC(=O)[C@H](C(C)C)N(C)C(=O)C1CCCC1)C(=O)N1CCC[C@H](N1)C(=O)OCC(C)(C)C2 = 0.01 to 0.1 µM
CCn1c(-c2cccnc2[C@H](C)OC)c2c3cc(ccc31)-c1csc(n1)C[C@H](NC(=O)[C@H](C(C)C)N(C)C(=O)N1CCC[C@H]1c1ccccc1)C(=O)N1CCC[C@H](N1)C(=O)OCC(C)(C)C2 = 1 to 10 µM
CCn1c(-c2cccnc2[C@H](C)OC)c2c3cc(ccc31)-c1cc(O)cc(c1)C[C@H](NC(=O)[C@H](C(C)C)N(C)C(=O)C13CCC(CO1)C3)C(=O)N1CCC[C@H](N1)C(=O)OCC(C)(C)C2 [Compound A411] = 0.1 to 1 µM
CCn1c(-c2cccnc2[C@H](C)OC)c2c3cc(ccc31)-c1cc(O)cc(c1)C[C@H](NC(=O)[C@H](C(C)C)N(C)C(=O)C13CCC(CO1)C3)C(=O)N1CCC[C@H](N1)C(=O)OCC(C)(C)C2 [Compound A410] = 0.1 to 1 µM
CCn1c(-c2cccnc2[C@H](C)OC)c2c3cc(ccc31)-c1csc(n1)C[C@H](NC(=O)[C@H](C(C)C)N(C)C(=O)N1CC[C@@H]1CN)C(=O)N1CCC[C@H](N1)C(=O)OCC(C)(C)C2 = 0.1 to 1 µM
CCn1c(-c2cccnc2[C@H](C)OC)c2c3cc(ccc31)-c1cc(O)cc(c1)C[C@H](NS(=O)(=O)CC1CC1)C(=O)N1CCC[C@H](N1)C(=O)OCC(C)(C)C2 = > 10 µM

Task: What measured IC50 is associated with CCn1c(-c2cnccc2COC)c2c3cc(ccc31)-c1cc(O)cc(c1)C[C@H](NC(=O)[C@H](C(C)C)N(C)C(=O)[C@H]1CN(C(C)=O)C[C@H]1C(F)(F)F)C(=O)N1CCC[C@H](N1)C(=O)OCC(C)(C)C2 on KRAS G12V (Homo sapiens (Human), UniProt P01116+P62937, G12V)?
Result: 0.1 to 1 µM

Task: What measured IC50 is associated with CCn1c(-c2cccnc2[C@H](C)OC)c2c3cc(ccc31)-c1csc(n1)C[C@H](NC(=O)[C@H](C(C)C)N1C[C@@H](c3ccccc3)CC1=O)C(=O)N1CCC[C@H](N1)C(=O)OCC(C)(C)C2 (single isomer, unassigned) on KRAS G12V (Homo sapiens (Human), UniProt P01116+P62937, G12V)?
Result: 1 to 10 µM

Task: What measured IC50 is associated with CCn1c(-c2cccnc2[C@H](C)OC)c2c3cc(ccc31)-c1csc(n1)C[C@H](NC(=O)[C@H](C(C)C)N(C)C(=O)N1CC3CC(C1)O3)C(=O)N1CCC[C@H](N1)C(=O)OCC(C)(C)C2 on KRAS G12V (Homo sapiens (Human), UniProt P01116+P62937, G12V)?
Result: 0.1 to 1 µM

Task: What measured IC50 is associated with CCn1c(-c2cnccc2COC)c2c3cc(ccc31)-c1cc(O)cc(c1)C[C@H](NC(=O)[C@H](C(C)C)N(C)C(=O)[C@H]1CCCN1C)C(=O)N1CCC[C@H](N1)C(=O)OCC(C)(C)C2 on KRAS G12V (Homo sapiens (Human), UniProt P01116+P62937, G12V)?
Result: 0.1 to 1 µM

====

- measurement-target: KRAS G13C (Homo sapiens (Human), UniProt P01116+P62937, G13C)
- Sequence (P01116 other isoform, or with tags, fused parts or gaps G13C): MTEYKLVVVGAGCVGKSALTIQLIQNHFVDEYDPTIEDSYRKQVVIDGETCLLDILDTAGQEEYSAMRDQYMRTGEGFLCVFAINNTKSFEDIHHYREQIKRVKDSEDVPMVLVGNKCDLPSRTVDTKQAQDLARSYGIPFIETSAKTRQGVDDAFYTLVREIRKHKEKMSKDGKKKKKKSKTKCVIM
- Sequence (P62937 whole entry): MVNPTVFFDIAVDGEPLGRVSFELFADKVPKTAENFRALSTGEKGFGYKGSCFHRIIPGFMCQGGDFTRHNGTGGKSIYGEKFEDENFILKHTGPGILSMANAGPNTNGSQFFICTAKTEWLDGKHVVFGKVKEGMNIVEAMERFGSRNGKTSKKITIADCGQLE
- assay-procedure: Ras-Raf disruption/FRET/MOA assay (BRAF RBD, Cyclophilin A)
- Assay type: biochemical
- test-parameters: read-out: KRAS G13C FRET IC50
- Protocol: Compound is present in plate wells as a 10-point 3-fold dilution series starting at a final concentration of 30 μM. After incubation at 25° C. for 3 hours, a mixture of Anti-His Eu—W1024 and anti-GST allophycocyanin is then added to assay sample wells at final concentrations of 10 nM and 50 nM, respectively, and the reaction incubated for an additional 1.5 hours. […]
Consider the following compounds and their measured IC50 readings.

CCn1c(-c2cccnc2[C@H](C)OC)c2c3cc(ccc31)-c1cc(O)cc(c1)C[C@H](NC(=O)[C@H](C(C)C)N(C)C(=O)[C@@H]1C[C@@H]1F)C(=O)N1CCC[C@H](N1)C(=O)OCC(C)(C)C2 = 10 to 100 nM
CCn1c(-c2cccnc2[C@H](C)OC)c2c3cc(ccc31)-c1cc(O)cc(c1)C[C@H](NC(=O)[C@H](C(C)C)N(C)C(=O)[C@H]1CCN(C(=O)[C@@]3(C)CCCN3C)C1)C(=O)N1CCC[C@H](N1)C(=O)OCC(C)(C)C2 = 10 to 100 nM
CCn1c(-c2cnccc2COC)c2c3cc(ccc31)-c1cc(O)cc(c1)C[C@H](NC(=O)[C@H](C(C)C)N1CCCC1=O)C(=O)N1CCC[C@H](N1)C(=O)OCC(C)(C)C2 = 100 to 1000 nM

Task: What measured IC50 is associated with CCn1c(-c2cccnc2[C@H](C)OC)c2c3cc(ccc31)-c1csc(n1)C[C@H](NC(=O)[C@H](C(C)C)N(C)C(=O)[C@H]1CCN(C(=O)CN(C)C)C1)C(=O)N1CCC[C@H](N1)C(=O)OCC(C)(C)C2 on KRAS G13C (Homo sapiens (Human), UniProt P01116+P62937, G13C)?
Result: 1000 to 10000 nM

====

- measurement-target: KRAS G12C (Homo sapiens (Human), UniProt P01116+P62937, G12C)
- Sequence (P01116-2 other isoform, or with tags, fused parts or gaps G12C, one chain of several): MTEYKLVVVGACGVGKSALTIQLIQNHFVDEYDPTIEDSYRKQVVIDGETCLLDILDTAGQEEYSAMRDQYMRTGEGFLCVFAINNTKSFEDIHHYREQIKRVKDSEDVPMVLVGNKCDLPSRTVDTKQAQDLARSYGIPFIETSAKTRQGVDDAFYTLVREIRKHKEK
- assay-procedure: Ras-Raf disruption/FRET/MOA assay, KRAS G12C
- Type: biochemical
- test-parameters: read-out: KRAS G12C FRET data IC50
Consider the following compounds and their measured IC50 readings.

CCn1c(-c2cnccc2COC)c2c3cc(ccc31)-c1cccc(c1)C[C@H](NC(=O)[C@H](C(C)C)N1CC[C@H](CN=C=Nc3ccc(OC)cc3)C1)C(=O)N1CCC[C@H](N1)C(=O)OCC(C)(C)C2 = 100 to 1000 nM
CCn1c(-c2cnccc2COC)c2c3cc(ccc31)-c1cc(O)cc(c1)C[C@H](NC(=O)[C@@H](CCNC1=NCCO1)C(C)C)C(=O)N1CCC[C@H](N1)C(=O)OCC(C)(C)C2 = 1000 to 10000 nM
CCn1c(-c2cnccc2COC)c2c3cc(ccc31)-c1cc(O)cc(c1)C[C@H](NC(=O)[C@H](C(C)C)N(C)C(=O)[C@H]1CCN(C(=O)[C@@H]3CO3)C1)C(=O)N1CCC[C@H](N1)C(=O)OCC(C)(C)C2 = 10 to 100 nM
CCn1c(-c2cccnc2[C@H](C)OC)c2c3cc(ccc31)-c1cc(O)cc(c1)C[C@H](NC(=O)[C@H](C(C)C)N1CCC3(CC(C(=O)[C@H]4CN4)C3)C1=O)C(=O)N1CCC[C@H](N1)C(=O)OCC(C)(C)C2 (stereo partly drawn) = < 10 nM
CCn1c(-c2cnccc2COC)c2c3cc(ccc31)-c1cccc(c1)C[C@H](NC(=O)[C@H](C(C)C)N(C)C(=O)CCN=C=Nc1ccc(N3CCOCC3)cc1)C(=O)N1CCC[C@H](N1)C(=O)OCC(C)(C)C2 = 100 to 1000 nM

Task: May I ask what IC50 has been recorded for CCn1c(-c2cnccc2COC)c2c3cc(ccc31)-c1cc(O)cc(c1)C[C@H](NC(=O)[C@H](C(C)C)N(C)C(=O)C1CN(C(=O)[C@H]3CN3)C1)C(=O)N1CCC[C@H](N1)C(=O)OCC(C)(C)C2 ?
Result: 10 to 100 nM

Task: May I ask what IC50 has been recorded for CCn1c(-c2cnccc2COC)c2c3cc(ccc31)-c1cc(O)cc(c1)C[C@H](NC(=O)[C@H](C(C)C)N(C)C(=O)N1CCCN(C(=O)[C@@H]3CN3)CC1)C(=O)N1CCC[C@H](N1)C(=O)OCC(C)(C)C2 ?
Result: 10 to 100 nM

Task: May I ask what IC50 has been recorded for CCn1c(-c2cnccc2COC)c2c3cc(ccc31)-c1cc(O)cc(c1)C[C@H](NC(=O)[C@@H](CN(C)C(=O)[C@@H]1CN1)C(C)C)C(=O)N1CCC[C@H](N1)C(=O)OCC(C)(C)C2 ?
Result: 1000 to 10000 nM

Task: May I ask what IC50 has been recorded for CCn1c(-c2cnccc2COC)c2c3cc(ccc31)-c1cc(O)cc(c1)C[C@H](NC(=O)[C@H](C(C)C)N(C)C(=O)C1CCN(C(=O)[C@@H]3CN3)CC1)C(=O)N1CCC[C@H](N1)C(=O)OCC(C)(C)C2 ?
Result: 10 to 100 nM
